These data points were gathered from patent EP0647632A1.

- assay.system: CCK-B receptor (Rattus norvegicus, UniProt P30553)
- Construct: freezed at -80°C for storage as a membrane sample
- Sequence (P30553 1-452): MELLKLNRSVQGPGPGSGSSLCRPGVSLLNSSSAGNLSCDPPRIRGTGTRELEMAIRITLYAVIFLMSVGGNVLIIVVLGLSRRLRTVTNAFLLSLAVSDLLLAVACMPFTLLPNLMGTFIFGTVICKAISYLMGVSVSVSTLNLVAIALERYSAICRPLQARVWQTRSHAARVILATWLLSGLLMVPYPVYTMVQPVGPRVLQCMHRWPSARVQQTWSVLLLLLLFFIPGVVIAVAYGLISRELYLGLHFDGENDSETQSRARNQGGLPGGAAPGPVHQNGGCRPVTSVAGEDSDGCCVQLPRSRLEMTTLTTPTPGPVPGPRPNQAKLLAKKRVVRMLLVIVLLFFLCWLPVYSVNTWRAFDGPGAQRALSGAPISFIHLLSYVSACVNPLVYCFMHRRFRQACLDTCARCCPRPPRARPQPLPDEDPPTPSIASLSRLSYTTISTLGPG
- run.description: Binding activity to CCK-B receptor: displacement of [125I]BH.CCK-8 from rat whole brain membrane sample
- settings: rat brain membranes, [125I]BH.CCK-8, 25°C, 120 minutes; read-out: CCK-B Binding IC₅₀
readout: pIC50
Recall that pIC50 is obtained by taking minus log10 of the concentration measured in molar.

Cc1ccccc1C(=O)CN1C(=O)[C@H](NC(=O)Nc2cccc(N(C)C)c2)N=C(c2ccccc2)c2ccccc21 [Example 3]    9.77
Cc1ccc(C(=O)CN2C(=O)C(NC(=O)Nc3cccc(N(C)C)c3)N=C(c3ccccc3)c3ccccc32)cc1 (single isomer, unassigned; (+)) [Example 21]    9.80

In: Given the molecule Cc1ccc(C(=O)CN2C(=O)C(NC(=O)Nc3cccc(N(C)C)c3)N=C(c3ccccn3)c3ccccc32)cc1 (stereo not drawn) [Example 35] , what is its reported pIC50?
Out: 8.67
